# Species: Cavia porcellus
# assay_info: Negative log of the concentration producing 50% of the maximum effect was measured in guinea pig trachea
# Assay type: functional
Residues, ends and D or L forms follow the SMILES beside them.
Reported pD2 by item:

{"compound": "CSCC[C@H](NC(=O)[C@H](CC(C)C)NC(=O)CNC(=O)[C@H](Cc1c[nH]c2ccccc12)NC(=O)[C@H](Cc1ccccc1)NC(=O)[C@@H](N)CCCN=C(N)N)C(N)=O (H-RFWGLM-NH2)", "pD2": 5.38}
{"compound": "CSCC[C@H](NC(=O)[C@H](CC(C)C)NC(=O)CNC(=O)[C@H](Cc1ccccc1)NC(=O)[C@H](Cc1ccccc1)NC(=O)[C@@H](N)CCC(N)=O)C(N)=O (H-QFFGLM-NH2)", "pD2": 7.46}
{"compound": "CSCC[C@H](NC(=O)[C@H](CC(C)C)NC(=O)CNC(=O)[C@H](Cc1ccccc1)NC(=O)[C@H](Cc1c[nH]c2ccccc12)NC(=O)[C@@H](N)CCCN=C(N)N)C(N)=O (H-RWFGLM-NH2)", "pD2": 5.18}
{"compound": "CSCC[C@H](NC(=O)[C@H](CC(C)C)NC(=O)[C@H](Cc1c[nH]c2ccccc12)NC(=O)[C@H](Cc1ccccc1)NC(=O)[C@H](Cc1ccccc1)NC(=O)[C@@H](N)CCCN=C(N)N)C(N)=O (H-RFFWLM-NH2)", "pD2": 6.06}

Ref: ChEMBL document CHEMBL1121967
